The entries below come with measured IC50 in micromolar, growth inhibition, L1210 mouse leukemia cells values attached.
# SYSTEM TESTED: LFA-1 on mouse L1210 T-cells (mouse, UniProt P24063 24-1162; P11835 24-771)
# Sequence (P24063 24-1162, chain 1 of 2): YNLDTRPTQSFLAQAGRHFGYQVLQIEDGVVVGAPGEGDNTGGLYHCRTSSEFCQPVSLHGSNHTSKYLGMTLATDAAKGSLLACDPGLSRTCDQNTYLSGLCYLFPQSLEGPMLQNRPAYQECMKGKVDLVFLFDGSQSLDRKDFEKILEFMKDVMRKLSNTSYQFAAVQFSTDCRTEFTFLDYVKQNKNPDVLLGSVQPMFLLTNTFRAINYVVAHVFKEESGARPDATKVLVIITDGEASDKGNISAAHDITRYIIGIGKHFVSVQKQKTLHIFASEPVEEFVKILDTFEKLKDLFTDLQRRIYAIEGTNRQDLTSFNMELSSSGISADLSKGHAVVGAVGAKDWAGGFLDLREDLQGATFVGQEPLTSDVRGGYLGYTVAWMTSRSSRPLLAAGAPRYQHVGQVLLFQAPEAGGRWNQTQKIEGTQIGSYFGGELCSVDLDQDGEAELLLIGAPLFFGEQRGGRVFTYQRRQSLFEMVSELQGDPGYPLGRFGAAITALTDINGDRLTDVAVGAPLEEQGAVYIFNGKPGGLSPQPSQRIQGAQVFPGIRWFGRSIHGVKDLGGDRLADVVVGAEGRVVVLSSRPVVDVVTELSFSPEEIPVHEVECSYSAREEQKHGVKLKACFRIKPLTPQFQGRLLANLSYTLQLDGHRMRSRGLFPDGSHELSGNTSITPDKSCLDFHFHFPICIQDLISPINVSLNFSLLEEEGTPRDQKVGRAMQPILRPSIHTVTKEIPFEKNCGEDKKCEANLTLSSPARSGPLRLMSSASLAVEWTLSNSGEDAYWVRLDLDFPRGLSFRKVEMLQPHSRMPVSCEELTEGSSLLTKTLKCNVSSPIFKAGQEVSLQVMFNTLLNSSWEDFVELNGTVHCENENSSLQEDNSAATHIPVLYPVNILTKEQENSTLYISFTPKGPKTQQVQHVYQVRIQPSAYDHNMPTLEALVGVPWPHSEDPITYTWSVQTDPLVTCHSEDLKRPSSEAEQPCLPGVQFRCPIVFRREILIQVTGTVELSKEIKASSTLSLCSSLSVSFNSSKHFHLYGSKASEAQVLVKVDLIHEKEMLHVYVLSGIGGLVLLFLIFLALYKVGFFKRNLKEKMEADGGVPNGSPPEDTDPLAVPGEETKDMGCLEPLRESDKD
# Sequence (P11835 24-771, chain 2 of 2): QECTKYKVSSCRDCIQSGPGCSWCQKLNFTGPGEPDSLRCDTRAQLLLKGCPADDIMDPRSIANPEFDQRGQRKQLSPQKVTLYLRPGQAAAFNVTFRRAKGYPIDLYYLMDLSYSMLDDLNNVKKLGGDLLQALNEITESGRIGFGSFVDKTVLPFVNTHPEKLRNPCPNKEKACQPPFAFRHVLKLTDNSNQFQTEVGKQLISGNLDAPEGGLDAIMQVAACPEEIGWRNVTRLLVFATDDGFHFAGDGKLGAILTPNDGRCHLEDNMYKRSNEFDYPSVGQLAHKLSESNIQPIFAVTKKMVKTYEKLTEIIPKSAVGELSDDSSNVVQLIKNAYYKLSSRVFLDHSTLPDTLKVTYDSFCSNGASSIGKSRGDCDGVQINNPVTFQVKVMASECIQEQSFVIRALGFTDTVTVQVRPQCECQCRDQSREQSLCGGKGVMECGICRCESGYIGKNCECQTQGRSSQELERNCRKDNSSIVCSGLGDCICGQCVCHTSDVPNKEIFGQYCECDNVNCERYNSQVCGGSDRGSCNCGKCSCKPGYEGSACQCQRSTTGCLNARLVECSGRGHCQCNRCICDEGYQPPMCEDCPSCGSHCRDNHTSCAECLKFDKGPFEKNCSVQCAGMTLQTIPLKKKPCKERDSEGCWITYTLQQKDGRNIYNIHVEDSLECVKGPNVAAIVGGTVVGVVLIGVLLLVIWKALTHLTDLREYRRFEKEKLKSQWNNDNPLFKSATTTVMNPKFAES
# PROTOCOL TEXT: cell-based or functional assay
No end group written: not given here. *: point of attachment. MTX = methotrexate, its gamma-carboxylic acid amide-linked to the peptide N-terminus, CN(Cc1cnc2nc(N)nc(N)c2n1)c1ccc(C(=O)N[C@@H](CCC(=O)*)C(=O)O)cc1
Note: unit µM is implicit; provide only the numeric part.

GET /values?readout=IC50 in micromolar, growth inhibition, L1210 mouse leukemia cells&item= {MTX}-QTSVSPSKVI (also: cyclic peptide, ring not given here) [MTX-cIBL conjugate]
9.14
